target_or_system: UniProtKB P03372
Sequence (P03372 whole entry): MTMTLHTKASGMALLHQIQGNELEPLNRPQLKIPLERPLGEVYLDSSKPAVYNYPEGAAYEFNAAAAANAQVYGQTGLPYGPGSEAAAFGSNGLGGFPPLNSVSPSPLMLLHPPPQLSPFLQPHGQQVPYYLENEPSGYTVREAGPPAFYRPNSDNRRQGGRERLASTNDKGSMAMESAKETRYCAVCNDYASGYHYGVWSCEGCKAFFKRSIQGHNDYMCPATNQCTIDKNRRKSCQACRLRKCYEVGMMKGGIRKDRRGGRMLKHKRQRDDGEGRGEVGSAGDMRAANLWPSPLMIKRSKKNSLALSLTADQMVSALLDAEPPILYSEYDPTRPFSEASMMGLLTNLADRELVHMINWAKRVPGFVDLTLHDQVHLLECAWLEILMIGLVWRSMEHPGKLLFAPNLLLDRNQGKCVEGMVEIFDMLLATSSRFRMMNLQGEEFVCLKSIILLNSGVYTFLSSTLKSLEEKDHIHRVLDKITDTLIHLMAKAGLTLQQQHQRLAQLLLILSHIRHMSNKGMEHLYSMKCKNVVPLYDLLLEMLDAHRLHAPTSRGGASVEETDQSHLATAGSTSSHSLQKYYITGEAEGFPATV
experiment_summary: ER-responsive luciferase reporter
Assay type: cell-based
measurement_conditions: read-out: EC50 [M], ERα; SKBR3 cells, ERα expression plasmid, 24 h, mean ± SD of three experiments

| structure_as_smiles | u | EC50 |
| --- | --- | --- |
| CCCc1c(-c2ccc(O)cc2)nn(-c2ccc(O)cc2)c1-c1ccc(O)cc1 | M | 2.5e-10 |

----------
Tested on: BG1LucERβc9 cells
experiment_summary: Luciferase induction in stably transfected BG1LucERβc9 cells
Assay type: cell-based, human
measurement_conditions: read-out: EC50 [M], BG1LucERβc9; 24 h; mean ± SD of 8–16 experiments; genistein and Br-ERβ-041 at 50% of maximum E2 activity

| compound | EC50 / M |
| --- | --- |
| CCCc1c(-c2ccc(O)cc2)nn(-c2ccc(O)cc2)c1-c1ccc(O)cc1 [PPT] | 3.2e-09 |
